System: UO-31
Experiment: NCI tumour cell line growth inhibition, 48 h
Active and inactive are the calls of the source. Cut-off read from the data, not from the text of the source: active = GI50 up to about 1.1 µM and inactive = higher.
Your response should consist of one outcome taken from true = active, false = inactive

For orientation, consider the following solved cases.
Cc1sc(Nc2ccccc2[N+](=O)[O-])c(C#N)c1C: false
NS(=O)(=O)c1cc(Cl)c(NC(=S)NC(=O)Nc2ccc(Cl)c(Cl)c2)c(Cl)c1: false
CCOP(=Nc1ccc(N(C)C)cc1)(OCC)OCC: false

Fill in: this test's call for O=c1c(O)c(-c2ccccc2)n(O)c2ccc(Cl)cc12 is ___ false

Fill in: this test's call for Nc1nc(=O)n([C@@H]2CC[C@H](CO)O2)cc1F is ___ false

Fill in: this test's call for N/C(CSCCSC/C(N)=N/O)=N\O is ___ false

Fill in: this test's call for CC1CC(NC2CCCCC2)=Nc2ccccc2N1Cc1ccccc1 (configuration not stated) is ___ false

Fill in: this test's call for BrCC(Br)(c1ccccc1)c1ccccc1-c1cc(-c2ccccc2)cc(-c2ccccc2)n1 (configuration not stated) is ___ false

Fill in: this test's call for N=C(N)CCNC(=O)C1CCC(N)=N1 (configuration not stated) is ___ false

Fill in: this test's call for COC(=O)c1cc(C(=CCC[C@H]2CC[C@@]3(C)C(CCC4C3CC[C@@]3(C)C4CC[C@@H]3C(C)CCCC(C)C)C2)c2cc(Cl)c(OC(=O)c3ccccc3)c(C(=O)OC)c2)cc(Cl)c1OC(=O)c1ccccc1 (some centres not stated) is ___ false

Fill in: this test's call for CC(C)=CCC/C(C)=C/CC/C(C)=C/CSc1ccccc1C(=O)O [SALIRASIB] is ___ false

Fill in: this test's call for O=C1c2ccccc2C(=O)N1CCCC(=O)n1cc(F)c(=O)[nH]c1=O is ___ false

Fill in: this test's call for O=C(O)CN(c1ccccc1)S(=O)(=O)c1ccc(NC(=O)c2ccccc2)cc1 is ___ false

Fill in: this test's call for CC(C(=O)N1c2ccccc2Sc2ccccc21)N1c2ccccc2Sc2ccccc21 (configuration not stated) is ___ false

Fill in: this test's call for CC(=O)OCCOCn1c2c(c(=O)[nH]c1=O)CCC2 is ___ false

Fill in: this test's call for Cc1cc(N)c(C)c2c1[nH]c1ccc(O)cc12 is ___ false

Fill in: this test's call for CN(C)CCNC(=O)Cc1ccccc1Nc1c(Cl)cccc1Cl is ___ false

Fill in: this test's call for O=C1NC(=S)NC(=O)C1=C/C=C/c1ccc([N+](=O)[O-])cc1 is ___ false

* * *

The following molecules are listed with their measured GI50 values.
System: SNB-75
Assay: NCI tumour cell line growth inhibition, 48 h
The source made the active and inactive calls. Cut-off read from the data, not from the text of the source: active = GI50 up to about 1.1 µM and inactive = higher.

CCOC(=O)C(=O)Nc1c(N(CC)CC)n2ccccc2nc1=O: > 100 µM (inactive)
O=C1NC(=S)NC(=O)C1=C/C=C/c1ccc([N+](=O)[O-])cc1: 19.2 µM (inactive)

Note: attention shifts to another entry.
COc1cc([C@H]2c3cc4c(cc3O[C@@]3(O)COC(=O)[C@@H]23)OCO4)cc(OC)c1OC on SNB-75 gives GI50 = > 100 µM (inactive)

* * *

System: HCT-15
Test: NCI tumour cell line growth inhibition, 48 h
Threshold 3 µM. GI50 below it: condition met. GI50 at it or above: condition not met.

Cc1cn(CCOCCOC(=O)NC(CCCNC(=N)N)C(=O)O)c(=O)[nH]c1=O (stereo not given): condition not met

Dear reviewer, please state whether CC1(C)OC(CCC#N)CN1C(=O)OCc1ccccc1 (stereo not given) has GI50 strictly beneath 3 µM. condition not met

Dear reviewer, please state whether S=C1CNC(=S)CN1 has GI50 strictly beneath 3 µM. condition not met

Dear reviewer, please state whether CCOC(=O)c1c(C)nc2c(c1-c1cn(-c3ccccc3)nc1-c1ccccc1)C(=O)c1ccccc1-2 has GI50 strictly beneath 3 µM. condition not met

Dear reviewer, please state whether CCc1c2c(cc3c1CC1(C3)Cc3cc4c(c(C(=O)OC)c3C1)CCCC4)CCCC2 (stereo not given) has GI50 strictly beneath 3 µM. condition not met

Dear reviewer, please state whether NC(=O)C[S+]([O-])CC(N)C(=O)O (stereo not given) has GI50 strictly beneath 3 µM. condition not met

Dear reviewer, please state whether N#Cc1c(N)oc(-c2ccc([N+](=O)[O-])cc2)c1C#N has GI50 strictly beneath 3 µM. condition not met

Dear reviewer, please state whether Cc1cccc(Nc2nn3c(=O)c4c5c(sc4nc3s2)CCCC5)c1 has GI50 strictly beneath 3 µM. condition not met

Dear reviewer, please state whether O=[N+]([O-])c1cc([N+](=O)[O-])c(C(Cl)C(Cl)c2ccccc2)cc1C(Cl)C(Cl)c1ccccc1 (stereo not given) has GI50 strictly beneath 3 µM. condition met

* * *

System: T47D
Test: NCI tumour cell line growth inhibition, 48 h
Calls of active or inactive are those of the source. Cut-off read from the data, not from the text of the source: active = GI50 up to about 1.1 µM and inactive = higher.
Your response should consist of one outcome taken from active, inactive

COc1cc(-c2[nH]ccc2Cl)oc1C1=C2N=C3C=C2C(C(C)C)C1CCCCCCCC3 (stereo not drawn): active
CCN(CC)C(=S)N/N=C/c1ccccn1: active

We next turn to a different compound, shown below.
Fill in: this test's call for COc1ccc(/C=C2\CCC(C)/C(=C\c3ccc(OC)c(OC)c3)C2=O)cc1OC (stereo not drawn) is ___ inactive

* * *

The following compounds are listed with their measured GI50 values.
System: SNB-75
Assay: NCI tumour cell line growth inhibition, 48 h
Activity calls are given as the source filed them. Cut-off read from the data, not from the text of the source: active = GI50 up to about 1.1 µM and inactive = higher.

Worked cases, GI50 given:
Cc1cc(Cc2cc(Cc3cc(C)cc(C(C)(C)C)c3O)c(C)cc2C)c(O)c(C(C)(C)C)c1: 11.2 µM (inactive)
Cc1ccc2c(c1)C(=O)c1nc(C)ccc1C2=O: 29.8 µM (inactive)

Note: attention shifts to another entry.
So, O=c1c2cc(Cl)ccc2[nH]c2cc(O)cc(O)c12 ? Its GI50 was 2.95 µM (inactive)

* * *

System: SK-MEL-5
Assay: NCI tumour cell line growth inhibition, 48 h
Active and inactive are the calls of the source. Cut-off read from the data, not from the text of the source: active = GI50 up to about 1.1 µM and inactive = higher.
parameter: GI50

Worked cases, GI50 given:
COc1ccc(O)c(C#N)c1C#N: > 100 µM (inactive)
O=c1c2cc(Cl)ccc2[nH]c2cc(O)cc(O)c12: > 10 µM (inactive)
COc1ccc(/N=N/c2ccc3oc(=O)c(C(=O)Nc4ccccc4)cc3c2)cc1: > 10 µM (inactive)
Cc1nnc(N/N=C(/C(=O)C(C#N)c2ccccc2)C(C#N)c2ccccc2)n1N (stereo unspecified): 18.3 µM (inactive)
O=C(Cn1c2ccc(Br)cc2c2nc3ccccc3nc21)Nc1ccccc1: 34.6 µM (inactive)

So, O=C1/C(=C/c2ccccc2)N=C2Sc3c([nH]cnc3=O)N12 ? Its GI50 was > 100 µM (inactive)

So, O=C(O)c1cc2ccccc2oc1=O ? Its GI50 was > 100 µM (inactive)

So, Cc1ccc(O)c(C2=CC(c3cccc(Cl)c3)SC(=N)N2)c1 (stereo unspecified) ? Its GI50 was 16.1 µM (inactive)

So, N/C(CSCCSC/C(N)=N/O)=N\O ? Its GI50 was > 100 µM (inactive)

So, CCOP(=O)(CN1CCNCCNCC1)OCC ? Its GI50 was > 100 µM (inactive)

* * *

System: DU-145
Assay: NCI tumour cell line growth inhibition, 48 h
The source made the active and inactive calls. No stated cut-off is given here; in the data, active = GI50 up to about 1.1 µM and inactive = higher.
Your response should consist of one outcome taken from Y for active, N for inactive

For orientation, consider the following solved cases.
Cc1c(O)ccc2c(O)c(NC(=O)c3ccc4c(c3)CCC(C)(C)O4)c(=O)oc12 [CYCLONOVOBIOCIC ACID]: N
Cc1ccc(S(=O)(=O)N/N=C2/CCC(C(C)(C)C)CC2Br)cc1 (stereo not drawn): N
CN(C)c1cccc2c(S(=O)(=O)NCCN)cccc12 [DANSYL ETHYLENEDIAMINE]: N
CCN(CC)C(=S)N/N=C/c1ccccn1: Y

Fill in: this test's call for CCOC(=O)c1c(-c2ccc(OC)cc2)c(C#N)c(=S)n(C2OC(CO)C(O)C(O)C2O)c1C (stereo not drawn) is ___ N

Fill in: this test's call for Oc1ccc2ccccc2c1/N=N/c1ccc(Br)cc1 is ___ N

Fill in: this test's call for C=C(C)C(=O)O[C@H]1C[C@@]23O[C@@H]2CCC(=C[C@H]2OC(=O)C(=C)[C@H]12)COC3O (stereo partly drawn) is ___ N

* * *

Tested on: HOP-18
Test: NCI tumour cell line growth inhibition, 48 h
Activity calls are given as the source filed them. Rule as the data show it: active = GI50 up to about 1.1 µM and inactive = higher.
parameter: GI50

O=C(CCn1[nH]c(=O)c(Cl)c(Cl)c1=O)NNC(=O)C[n+]1ccccc1: > 100 µM (inactive)
O=C1NC(=O)C2C1C1C=C3c4ccccc4N(c4ccccc4)C32[C@H]2C(=O)NC(=O)[C@@H]12 (stereo partly drawn): > 100 µM (inactive)

Brc1ccc(N2C[N+](c3ccc(Br)cc3)=NC(c3ccccc3)=N2)cc1.[O-][Cl+3]([O-])([O-])[O-] on HOP-18 gives GI50 = > 100 µM (inactive)
